System: P. aeruginosa ATCC 35151
test.summary: Broth microdilution MIC in CAMHB
Type: cell-based
assay.setup: Pseudomonas aeruginosa, ATCC35151; MHB; hyper-permeable strain; read-out: Minimum Inhibitory Concentration, P. aeruginosa ATCC 35151
# reported MIC; entries follow

>  <molecule>
Nc1nc(C(=O)NC(C(=O)N[C@H]2Cc3cccc(C(=O)O)c3OB2O)c2c(F)cc(O)cc2F)cs1 (stereo partly drawn)

>  <MIC>
2 to 4 µg/mL

$$$$
>  <molecule>
NCCN1CCN(C(=O)NC(C(=O)N[C@H]2Cc3cccc(C(=O)O)c3OB2O)c2c(F)cc(O)cc2Cl)C(=O)C1=O (stereo partly drawn)

>  <MIC>
2 to 4 µg/mL

$$$$
>  <molecule>
NS(=O)(=O)Nc1cccc(C(NC(=O)N2CCN(CCF)C(=O)C2=O)C(=O)N[C@H]2Cc3cccc(C(=O)O)c3OB2O)c1 (stereo partly drawn)

>  <MIC>
0.5 to 1 µg/mL

$$$$
>  <molecule>
NC1(CN2CCN(C(=O)N[C@@H](C(=O)N[C@H]3Cc4cccc(C(=O)O)c4OB3O)c3cc(F)c(O)c(F)c3F)C(=O)C2=O)CC1 (single isomer, unassigned)

>  <MIC>
< 0.25 µg/mL

$$$$

Okay, next one:
**Query** Could you share which MIC value was measured for CCN1CCN(C(=O)NC(C(=O)N[C@H]2Cc3cccc(C(=O)O)c3OB2O)c2cc([N+](=O)[O-])c(O)cc2F)C(=O)C1=O (stereo partly drawn) ?
**Result** 0.5 to 1 µg/mL

* * *

System: N. gonorrhoeae ATCC 49226
test.summary: Liquid broth MIC in Fastidious broth
Assay type: cell-based
assay.setup: Neisseria gonorrhoeae, ATCC49226; N. gonorrhoeae strain ATCC 49226; Fastidious broth; read-out: Minimum Inhibitory Concentration, N. gonorrhoeae ATCC 49226
# reported MIC; entries follow

Here's what some known entries look like.
>  <molecule>
NCCCN1CCN(C(=O)N[C@@H](C(=O)N[C@H]2Cc3ccc(F)c(C(=O)O)c3OB2O)c2cc(F)c(O)c(O)c2Cl)C(=O)C1=O (single isomer, unassigned) [Example 180]

>  <tested.target>
N. gonorrhoeae ATCC 49226

>  <observation.type>
MIC

>  <value.measured>
16 to 32 µg/mL

$$$$
>  <molecule>
NS(=O)(=O)Nc1cccc(C(NC(=O)N2CCN(CCF)C(=O)C2=O)C(=O)N[C@H]2Cc3cccc(C(=O)O)c3OB2O)c1 (stereo partly drawn) [Example 116]

>  <tested.target>
N. gonorrhoeae ATCC 49226

>  <observation.type>
MIC

>  <value.measured>
16 to 32 µg/mL

$$$$
>  <molecule>
O=C(O)c1c(F)ccc2c1OB(O)[C@@H](NC(=O)C(NC(=O)N1CCN(CCF)C(=O)C1=O)c1c(F)cc(O)cc1F)C2 (stereo partly drawn) [Example 129]

>  <tested.target>
N. gonorrhoeae ATCC 49226

>  <observation.type>
MIC

>  <value.measured>
16 to 32 µg/mL

$$$$
>  <molecule>
CCN1CCN(C(=O)NC(C(=O)N[C@H]2Cc3cccc(C(=O)O)c3OB2O)c2ccc(O)cc2OC)C(=O)C1=O (stereo partly drawn) [Example 70]

>  <tested.target>
N. gonorrhoeae ATCC 49226

>  <observation.type>
MIC

>  <value.measured>
16 to 32 µg/mL

$$$$

**Query** Could you share which MIC value was measured for NCCN1CCN(C(=O)N[C@@H](C(=O)N[C@H]2Cc3cccc(C(=O)O)c3OB2O)c2cc(F)c(O)c(F)c2F)C(=O)C1=O (single isomer, unassigned) [Example 168] ?
**Result** 4 to 8 µg/mL

**Query** Could you share which MIC value was measured for CCN1CCN(C(=O)NC(C(=O)N[C@H]2Cc3cccc(C(=O)O)c3OB2O)c2cccc(S(N)(=O)=O)c2)C(=O)C1=O (stereo partly drawn) [Example 99] ?
**Result** 16 to 32 µg/mL

* * *

# reported MIC; entries follow
System: N. gonorrhoeae H041
test.summary: Liquid broth MIC in Fastidious broth
Type: cell-based
assay.setup: Neisseria gonorrhoeae, H041, read-out: Minimum Inhibitory Concentration, N. gonorrhoeae H041

Here's what some known entries look like.
>  <compound>
NCCCN1CCN(C(=O)N[C@@H](C(=O)N[C@H]2Cc3ccc(F)c(C(=O)O)c3OB2O)c2c(F)cc(O)c(O)c2Cl)C(=O)C1=O (single isomer, unassigned)

>  <MIC>
> 64 µg/mL

$$$$
>  <compound>
CCN1CCN(C(=O)NC(C(=O)N[C@H]2Cc3cccc(C(=O)O)c3OB2O)c2cc(F)c(O)cc2F)C(=O)C1=O (stereo partly drawn)

>  <MIC>
16 to 32 µg/mL

$$$$

Okay, next one:
**Query** Could you share which MIC value was measured for CCN1CCN(C(=O)N[C@H](C(=O)N[C@H]2Cc3cccc(C(=O)O)c3OB2O)c2ccc(C(=O)O)cc2Cl)C(=O)C1=O (single isomer, unassigned) ?
**Result** 16 to 32 µg/mL

* * *

System: E. coli D22
test.summary: Broth microdilution MIC in CAMHB
Assay type: cell-based
assay.setup: Escherichia coli; E. coli D22 (hyper-permeable); MHB; read-out: Minimum Inhibitory Concentration, E. coli D22
# reported MIC; entries follow

>  <compound>
NCCCN1CCN(C(=O)NC(C(=O)N[C@H]2Cc3cccc(C(=O)O)c3OB2O)c2c(F)cc(O)cc2F)C(=O)C1=O (stereo partly drawn) [Example 183]

>  <MIC>
2 to 4 µg/mL

$$$$

**Query** Could you share which MIC value was measured for CCN1CCN(C(=O)N[C@@H](C(=O)N[C@H]2Cc3cccc(C(=O)O)c3OB2O)c2cc(Cl)c(O)cc2Cl)C(=O)C1=O (single isomer, unassigned) [Example 91] ?
**Result** 2 to 4 µg/mL

**Query** Could you share which MIC value was measured for NCCN1CCN(C(=O)N[C@H](C(=O)N[C@H]2Cc3cccc(C(=O)O)c3OB2O)c2ccc(O)c([N+](=O)[O-])c2)C(=O)C1=O (single isomer, unassigned) [Example 200] ?
**Result** > 128 µg/mL

**Query** Could you share which MIC value was measured for NCCN1CCN(C(=O)N[C@H](C(=O)N[C@H]2Cc3cccc(C(=O)O)c3OB2O)c2cc(F)c(O)c(F)c2F)C(=O)C1=O (single isomer, unassigned) [Example 167] ?
**Result** 8 to 16 µg/mL

**Query** Could you share which MIC value was measured for NC1(CN2CCN(C(=O)NC(C(=O)N[C@H]3Cc4cccc(C(=O)O)c4OB3O)c3cccc(NS(N)(=O)=O)c3)C(=O)C2=O)CC1 (stereo partly drawn) [Example 120] ?
**Result** 8 to 16 µg/mL

**Query** Could you share which MIC value was measured for NCCCN1CCN(C(=O)N[C@@H](C(=O)N[C@H]2Cc3ccc(F)c(C(=O)O)c3OB2O)c2ncc(O)cc2F)C(=O)C1=O [Example 16] ?
**Result** 2 to 4 µg/mL

**Query** Could you share which MIC value was measured for NCCCN1CCN(C(=O)N[C@H](C(=O)N[C@H]2Cc3cccc(C(=O)O)c3OB2O)c2cccc(NS(N)(=O)=O)c2)C(=O)C1=O [Example 118] ?
**Result** 8 to 16 µg/mL

**Query** Could you share which MIC value was measured for CCN1CCN(C(=O)NC(C(=O)N[C@H]2Cc3cccc(C(=O)O)c3OB2O)c2ccc(O)c(NS(C)(=O)=O)c2)C(=O)C1=O (stereo partly drawn) [Example 22] ?
**Result** 2 to 4 µg/mL

* * *

System: N. gonorrhoeae WHO K
test.summary: Liquid broth MIC in Fastidious broth
Format: cell-based
assay.setup: Neisseria gonorrhoeae, read-out: Minimum Inhibitory Concentration, N. gonorrhoeae WHO K
observation.type: MIC

Here's what some known entries look like.
>  <compound>
NC1(CN2CCN(C(=O)NC(C(=O)N[C@H]3Cc4cccc(C(=O)O)c4OB3O)c3cccc(NS(N)(=O)=O)c3)C(=O)C2=O)CC1 (stereo partly shown)

>  <MIC>
> 64 µg/mL

$$$$
>  <compound>
NCCN1CCN(C(=O)N[C@H](C(=O)N[C@H]2Cc3cccc(C(=O)O)c3OB2O)c2cc(F)c(O)c(F)c2)C(=O)C1=O (single isomer, unassigned)

>  <MIC>
> 64 µg/mL

$$$$
>  <compound>
NS(=O)(=O)Nc1cccc(C(NC(=O)N2CCN(CCF)C(=O)C2=O)C(=O)N[C@H]2Cc3cccc(C(=O)O)c3OB2O)c1 (stereo partly shown)

>  <MIC>
16 to 32 µg/mL

$$$$

**Query** Could you share which MIC value was measured for CCN1CCN(C(=O)NC(C(=O)N[C@H]2Cc3ccc(O[C@@H]4CN[C@H](C(=O)N(C)C)C4)c(C(=O)O)c3OB2O)c2ccccc2)C(=O)C1=O (stereo partly shown) ?
**Result** > 64 µg/mL

* * *

Tested on: N. gonorrhoeae FA1090
test.summary: Liquid broth MIC in Fastidious broth
Assay type: cell-based
assay.setup: Neisseria gonorrhoeae; N. gonorrhoeae strain FA1090; Fastidious broth; read-out: Minimum Inhibitory Concentration, N. gonorrhoeae FA1090
observation.type: MIC

Here's what some known entries look like.
>  <compound>
N=C(N)NC(C(=O)N[C@H]1Cc2ccc(F)c(C(=O)O)c2OB1O)c1ncc(O)cc1F (stereo partly shown)

>  <value.measured>
> 64 mg/L

$$$$
>  <compound>
CCN1CCN(C(=O)NC(C(=O)N[C@H]2Cc3cccc(C(=O)O)c3OB2O)c2ccc(O)c(NC(C)=O)c2)C(=O)C1=O (stereo partly shown)

>  <value.measured>
1 to 2 mg/L

$$$$
>  <compound>
CCN1CCN(C(=O)NC(C(=O)N[C@H]2Cc3cccc(C(=O)O)c3OB2O)c2cncc(O)c2)C(=O)C1=O (stereo partly shown)

>  <value.measured>
1 to 2 mg/L

$$$$

Okay, next one:
**Query** Could you share which MIC value was measured for NCCN1CCN(C(=O)N[C@H](C(=O)N[C@H]2Cc3cccc(C(=O)O)c3OB2O)c2ccc(O)c([N+](=O)[O-])c2)C(=O)C1=O (single isomer, unassigned) ?
**Result** 4 to 8 mg/L
